assay: Toxicity in human RBC assessed as hemolysis after 1 hr; assay type: cell-based, Erythrocyte; settings: human red blood cells (RBC)
outcome.measure: HC50 at 1 h (µg/mL)
Numbers only; they are read as µg/mL.

NCCC(=O)Nc1ccc(C(F)(F)F)cc1-c1ccc(-c2cc(C(F)(F)F)ccc2NC(=O)CCN)nc1.O=C(O)C(F)(F)F.O=C(O)C(F)(F)F : 356
NCCC(=O)Nc1ccc(C(F)(F)F)cc1-c1ccc(-c2cc(C(F)(F)F)ccc2NC(=O)CCN)cc1.O=C(O)C(F)(F)F.O=C(O)C(F)(F)F : 36.5

Attention now turns to another entry.
Field HC50 at 1 h (entry CC(C)(C)c1ccc(NC(=O)CCCCNC(=N)N)c(-c2ccc(-c3cc(C(C)(C)C)ccc3NC(=O)CCCCNC(=N)N)cc2)c1.O=C(O)C(F)(F)F.O=C(O)C(F)(F)F ) reads 12.8

The measured values listed here are drawn from ChEMBL document CHEMBL1765053.
